Measured PD-L1-Dependent CD28 Costimulation, No PD-L1, 50 nM accompanies every entry in the list below.
Molecular target: CD28 (Homo sapiens, UniProt P10747)
Experiment: Jurkat/IL2 + CHO/OKT3 +/- PD-L1 reporter assay: PD-L1-dependent CD28 costimulation
Format: cell-based
Parameters: host or cells: Jurkat cells expressing an IL-2-luciferase reporter
Settings: CHO/OKT3 aAPC, no PD-L1; 50 nM; luciferase signal
Please give only the number in your answer, with no unit.

{"columns": ["Molecule", "Value Observed"],
 "data": [
  ["E23G/A26S/E35D/T62N/A71D/L72V/L85M: variant CD80 IgV-Fc, IgV SEQ ID NO:216 (protein) VIHVTKEVKEVATLSCGHNVSVGELSQTRIYWQKDKKMVLTMMSGDMNIWPEYKNRTIFDINNNLSIVILDVRPSDEGTYECVVMKYEKDAFKREHLAEVTLSVKAD", 606]
]}

Task: What value of PD-L1-Dependent CD28 Costimulation, No PD-L1, 50 nM has been reported for the following molecule? E35G/K54E/A71D/L72P: variant CD80 IgV-Fc, IgV SEQ ID NO:219 (protein) VIHVTKEVKEVATLSCGHNVSVEELAQTRIYWQKGKKMVLTMMSGDMNIWPEYENRTIFDITNNLSIVILDPRPSDEGTYECVVLKYEKDAFKREHLAEVTLSVKAD
Output: 440

Task: Requested field: PD-L1-Dependent CD28 Costimulation, No PD-L1, 50 nM. Item: A71D/L72V/E95K: variant CD80 IgV-Fc, IgV SEQ ID NO:192 (protein) VIHVTKEVKEVATLSCGHNVSVEELAQTRIYWQKEKKMVLTMMSGDMNIWPEYKNRTIFDITNNLSIVILDVRPSDEGTYECVVLKYEKDAFKRKHLAEVTLSVKAD
Output: 644
